Measured A/G, listed per entry for reference.
organism: Rattus norvegicus; assay: Open TG-GATES - Regimen: Daily Repeat; type: toxicity, organism-based, Sprague-Dawley; set-up: regimen Daily Repeat, gender Male, age 6 weeks; details: in vivo, po, 0 mg/kg, 72 h, tissue Plasma, route gavage, dose level Control, time 3 day

{"COMPOUND": "CNC(=C[N+](=O)[O-])NCCSCc1ccc(CN(C)C)o1", "A/G": 1.6}
{"COMPOUND": "Cc1nnc2n1-c1ccc(Cl)cc1C(c1ccccc1Cl)=NC2", "A/G": 0.9}
{"COMPOUND": "CN1C(=O)CCS(=O)(=O)C1c1ccc(Cl)cc1 (stereo unspecified)", "A/G": 0.9}
{"COMPOUND": "NC1=NC(=O)C(c2ccccc2)O1 (stereo unspecified)", "A/G": 0.9}
{"COMPOUND": "CCCc1cc(=O)[nH]c(=S)[nH]1", "A/G": 1.9}
{"COMPOUND": "CC(C)NNC(=O)c1ccncc1", "A/G": 1.3}
